target: p70S6K (h) (Homo sapiens); construct: purchased Upstate Ltd; assay: p70S6K (h) kinase assay (Upstate, 33P-ATP filtermat); format: biochemical; settings: 100 uM of inhibitor; ATP 15 uM
Sequence (P23443 whole entry): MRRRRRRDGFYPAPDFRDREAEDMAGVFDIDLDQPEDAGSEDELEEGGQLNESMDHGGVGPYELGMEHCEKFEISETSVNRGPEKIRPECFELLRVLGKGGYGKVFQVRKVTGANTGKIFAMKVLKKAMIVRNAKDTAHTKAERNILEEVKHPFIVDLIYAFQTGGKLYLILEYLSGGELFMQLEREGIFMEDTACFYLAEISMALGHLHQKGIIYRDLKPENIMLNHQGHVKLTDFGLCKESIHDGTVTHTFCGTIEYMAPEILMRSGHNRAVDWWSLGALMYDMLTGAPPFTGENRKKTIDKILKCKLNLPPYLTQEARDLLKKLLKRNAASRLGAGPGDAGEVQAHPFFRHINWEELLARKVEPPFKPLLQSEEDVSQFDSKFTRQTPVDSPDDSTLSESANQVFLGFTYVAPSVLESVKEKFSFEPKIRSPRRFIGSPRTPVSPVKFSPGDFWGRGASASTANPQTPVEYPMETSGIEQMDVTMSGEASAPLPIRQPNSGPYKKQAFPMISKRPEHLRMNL
readout label: P70S6 (h) % inhibition (%)

Worked examples follow.
Query block: May I ask what P70S6 (h) % inhibition has been recorded for Cl.Nc1nnc2ccc(OCC3CCNCC3)cc2n1 [Example 28] ?
Result block: 47

Query block: May I ask what P70S6 (h) % inhibition has been recorded for Cl.Nc1nc2cc(OCC3CCNCC3)ccc2[n+]([O-])n1 [Example 27] ?
Result block: 62

Query block: May I ask what P70S6 (h) % inhibition has been recorded for Nc1nc2cc(N3CCNCC3)ccc2[n+]([O-])n1 [Example 25] ?
Result block: 43

(A) Nc1nc2cc(OCCc3ccc(Cl)c(Cl)c3)ccc2[n+]([O-])n1 [Example 29]
(B) Nc1nc2ccc(-c3ccn[nH]3)cc2[n+]([O-])n1 [Example 15]
(C) Nc1nc2ccc(-c3cn[nH]c3)cc2[n+]([O-])n1 [Example 7]
(D) [O-][n+]1nc(Nc2cccnc2)nc2ccccc21 [Example 4]
Query block: Write the entries in order, lowest recorded P70S6 (h) % inhibition first. Returns: the labels arranged in the requested order.
Result block: D, B, A, C
(D: 0%, B: 29%, A: 49%, C: 99%)

* * *

target: Aurora-A (h) (Homo sapiens, UniProt O14965); construct: purchased Upstate Ltd; experiment: Aurora-A (h) kinase assay (Upstate, 33P-ATP filtermat); assay type: biochemical; conditions: 100 uM of inhibitor; ATP 15 uM; read-out: AuroraA (h) % inhibition
Sequence (O14965 whole entry): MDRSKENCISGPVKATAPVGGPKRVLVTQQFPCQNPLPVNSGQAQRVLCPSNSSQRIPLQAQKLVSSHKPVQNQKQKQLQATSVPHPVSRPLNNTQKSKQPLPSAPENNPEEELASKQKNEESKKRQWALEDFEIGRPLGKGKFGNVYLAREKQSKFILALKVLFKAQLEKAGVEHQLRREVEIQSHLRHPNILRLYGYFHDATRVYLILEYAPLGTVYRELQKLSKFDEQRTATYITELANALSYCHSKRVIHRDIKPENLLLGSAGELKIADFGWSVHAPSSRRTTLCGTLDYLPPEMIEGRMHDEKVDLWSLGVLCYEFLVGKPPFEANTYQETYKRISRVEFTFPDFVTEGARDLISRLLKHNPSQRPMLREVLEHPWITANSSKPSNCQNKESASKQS
readout label: inhibition at 100 µM (%)

(1) c1ccc2nc(Nc3ccc(N4CCNCC4)cc3)nnc2c1 [Example 6]
(2) [O-][n+]1nc(-c2cn[nH]c2)nc2ccccc21 [Example 12]
Query block: Two entries are listed, 1 and 2 . Which one carries the higher inhibition at 100 µM? Reply briefly: the label of your chosen item.
Result block: 2

(a) Cc1cc(Nc2nnc3ccccc3n2)n[nH]1 [Example 11]
(b) Nc1nnc2cc(-c3ccn[nH]3)ccc2n1 [Example 14]
Query block: Hello, I am sorting some records. Could you say if a or b has the smaller inhibition at 100 µM value? Reply briefly: the label of your chosen item.
Result block: a

* * *

Molecular target: CHK1 (h) (Homo sapiens, UniProt O14757)
Construct: purchased Upstate Ltd
Sequence (O14757 1-476): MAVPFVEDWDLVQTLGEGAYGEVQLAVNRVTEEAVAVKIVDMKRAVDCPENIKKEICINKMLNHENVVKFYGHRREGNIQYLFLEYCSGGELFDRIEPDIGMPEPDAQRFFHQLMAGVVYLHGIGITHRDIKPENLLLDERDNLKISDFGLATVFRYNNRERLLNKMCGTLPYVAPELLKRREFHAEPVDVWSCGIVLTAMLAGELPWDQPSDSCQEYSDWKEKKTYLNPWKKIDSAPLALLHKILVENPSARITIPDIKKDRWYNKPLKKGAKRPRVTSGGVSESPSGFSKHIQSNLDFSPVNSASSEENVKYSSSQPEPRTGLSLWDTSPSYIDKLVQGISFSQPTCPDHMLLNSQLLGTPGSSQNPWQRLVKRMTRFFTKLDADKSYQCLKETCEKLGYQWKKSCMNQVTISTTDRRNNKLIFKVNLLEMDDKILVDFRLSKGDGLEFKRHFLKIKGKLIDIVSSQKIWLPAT
Test: CHK1 (h) kinase assay (Upstate, 33P-ATP filtermat)
Format: biochemical
Conditions: 100 uM of inhibitor; ATP 90 uM
readout label: Chk1 (h) % inhibition (%)

Worked examples follow.
Query block: May I ask what Chk1 (h) % inhibition has been recorded for [O-][n+]1nc(Nc2ccc(N3CCNCC3)nc2)nc2ccccc21 [Example 20] ?
Result block: 1

Query block: May I ask what Chk1 (h) % inhibition has been recorded for Nc1nc2ccc(-c3ccn[nH]3)cc2[n+]([O-])n1 [Example 15] ?
Result block: 10

Query block: May I ask what Chk1 (h) % inhibition has been recorded for Cc1cc(Nc2nc3ccccc3[n+]([O-])n2)n[nH]1 [Example 10] ?
Result block: 20

Query block: May I ask what Chk1 (h) % inhibition has been recorded for [O-][n+]1nc(Nc2cccnc2)nc2ccccc21 [Example 4] ?
Result block: 14

(P) [O-][n+]1nc(Nc2ccc(N3CCNCC3)cc2)nc2ccccc21 [Example 5]
(Q) Nc1nc2ccc(-c3cn[nH]c3)cc2[n+]([O-])n1 [Example 7]
Query block: Hello, I am sorting some records. Could you say if P or Q has the smaller Chk1 (h) % inhibition value? Reply briefly: the label of your chosen item.
Result block: P
(P: 7%, Q: 31%)
